Consider the following binders and their measured hGLPR1 EC50 nM (purified peptide) readings.
biological target: human GLP-1 receptor (hGLP1R) (human, UniProt P43220 24-463); assay: cell-based or functional assay
Numbered stars: 1 amine (or outer) side, 2 acyl side, 3 side chain; on linkers, the order of the positions; unused ones are H or OH. Square brackets hold non-standard residues; d marks the D form. Side chains are listed from the residue outwards. Ends that are not written are not given here. * marks the point of attachment. C20 diacid = O=C(O)CCCCCCCCCCCCCCCCCCC(=O)*; γGlu = O=C(O)[C@H](CCC(=O)[*:2])N[*:1]; AEEA = NCCOCCOCC(=O)O; Aib = CC(C)(N)C(=O)O
MEASURED_METRIC: hGLPR1 EC50 nM (purified peptide) (nM)

[[record]]
binder = "H[Aib]EGTFTSDVSRLK([AEEA-AEEA-γGlu-C20 diacid])EEA[Aib]LQRFLEHLVEAA-NH2 [SEQ ID NO: 208]"
assay_value = 0.022

[[record]]
binder = "H[Aib]EGTFTSDVSYLK([AEEA-AEEA-γGlu-C20 diacid])EEA[Aib]LQRFLEHLV-NH2 (also: table footnote: C20DA or C18DA) [SEQ ID NO: 203]"
assay_value = 0.017

[[record]]
binder = "H[Aib]EGTFTSDVSRLLEEA[Aib]LQRFLEK([AEEA-AEEA-γGlu-C20 diacid])LVEAA-NH2 [SEQ ID NO: 212]"
assay_value = 0.021

[[record]]
binder = "H[Aib]EGTFTSDVSELK([AEEA-AEEA-γGlu-C20 diacid])EEA[Aib]LQRFLEHLVEAA-NH2 [SEQ ID NO: 210]"
assay_value = 0.0095

[[record]]
binder = "H[Aib]EGTFTSDVSELK([AEEA-AEEA-γGlu-C20 diacid])EEA[Aib]LQRFLEHLV-NH2 [SEQ ID NO: 168]"
assay_value = 0.012

